The values you see were collected from the supplement of paper PMC10567573.

B1: ZNF449 (parent)
chain: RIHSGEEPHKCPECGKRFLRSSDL

# Variants of: B1
# experiment.description: protein stability index of a GFP-peptide fusion (GPS, HEK-293T) (PSI 1-6); higher = more stable;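 note: lentivirally expressed fusions sorted by FACS into six bins by GFP to DsRed ratio, PSI derived from sequencing read proportions per bin multiplied by bin number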
# cond: c terminus: a fixed tail appended
quantity: protein stability index
One number for each entry.

{"mutation.label": "S22V", "observed": 3.58}
{"mutation.label": "R17I", "observed": 3.72}
{"mutation.label": "G5R", "observed": 3.2}
{"mutation.label": "P12E", "observed": 4.41}
{"mutation.label": "R1F", "observed": 1.38}
{"mutation.label": "L19T", "observed": 3.65}

Hey, can you go through the list below and give me protein stability index for every item?
1. D23C
2. E13G
3. I2N
4. S4P
5. R17P
6. R20K
7. P8S

Result:
1: 2.75; 2: 3.21; 3: 4.19; 4: 3.16; 5: 3.66; 6: 3.25; 7: 3.25
